experiment: Volume of distribution of epirubicin following intravenous epirubicin solution at 1 mg.Kg-1 dose in rabbit; assay type: ADME, organism-based, Oryctolagus cuniculus; details: both, New Zealand White, blood
PROPERTY MEASURED: Vd (L/kg)
Record the value in L/kg, omitting the unit from your answer.

Ask: Fill in the blank: the reported Vd of COc1cccc2c1C(=O)c1c(O)c3c(c(O)c1C2=O)C[C@@](O)(C(=O)CO)C[C@@H]3O[C@H]1C[C@H](N)[C@@H](O)[C@H](C)O1.Cl [EPIRUBICIN HYDROCHLORIDE] is ____.
Result: 30.9

---

test: Volume of distribution at steady state following doxorubicin at 60 mg.m-2 dose in patients with cancer; assay type: ADME, organism-based; set-up: dose 60 mg.m-2, dosed compound id 2.46809e+06, dosed compound name Doxorubicin; settings: human, plasma, read-out: Vss
PROPERTY MEASURED: Vd (L/kg)
Record the value in L/kg, omitting the unit from your answer.

Ask: Fill in the blank: the reported Vd of COc1cccc2c1C(=O)c1c(O)c3c(c(O)c1C2=O)C[C@@](O)(C(=O)CO)C[C@@H]3O[C@H]1C[C@H](N)[C@H](O)[C@H](C)O1 [DOXORUBICIN] is ____.
Result: 33
